Target: Von Hippel-Lindau disease tumor suppressor/Elongin B/Elongin C (Homo sapiens)
Sequence (P40337 whole entry, looked up): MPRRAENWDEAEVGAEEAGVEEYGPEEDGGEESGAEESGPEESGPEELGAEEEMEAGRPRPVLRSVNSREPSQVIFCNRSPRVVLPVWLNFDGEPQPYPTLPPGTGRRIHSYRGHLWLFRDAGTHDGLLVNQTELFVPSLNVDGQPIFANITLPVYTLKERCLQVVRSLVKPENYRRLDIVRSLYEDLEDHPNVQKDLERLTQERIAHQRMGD
Assay: Displacement of JC-9 probe from recombinant VHL/Elongin C/Elogin B (unknown origin) using FAM-DEALA-Hyp-YIPMDDDFQLRSF as substrate assessed as dissociation constant by competitive fluorescence polarization assay
Assay type: protein-complex assay
Can you tell me pKd for the items I'm about to list?
Give bare numbers, as −log10 of the molar value.

>>> assay_result("Cc1ncsc1-c1ccc(CNC(=O)[C@@H]2C[C@@H](O)CN2C(=O)[C@@H](NC(=O)C2(F)CC2)C(C)(C)SC[C@H]2CC[C@@H](CN3CCOCC3)CC2)cc1")
6.45
>>> assay_result("CNc1nc(Nc2ccc(C(=O)N3CCN(C[C@H]4CC[C@@H](CSC(C)(C)[C@H](NC(=O)C5(F)CC5)C(=O)N5C[C@H](O)C[C@H]5C(=O)NCc5ccc(-c6scnc6C)cc5)CC4)CC3)cc2OC)ncc1Cl")
6.49

Now for another entry.
Q) GET pKd where system = Von Hippel-Lindau disease tumor suppressor/Elongin B/Elongin C (Homo sapiens) and item = Cc1ncsc1-c1ccc(CNC(=O)[C@@H]2C[C@@H](O)CN2C(=O)[C@@H](NC(=O)C2(F)CC2)C(C)(C)SC[C@H]2CC[C@H](CN(C)C)CC2)cc1
A) 6.29
